Origin of values: patent US9266922B2

assayedSystem: HLA-A*0201 (Homo sapiens, UniProt P04439, D140Y/D185E/D98H/E176V/E277Q/G131W/G231S/I119V/I121R/I166T/I218V/L300P/L318F/N151K/N90K/P208A/P217A/Q86G/Q94H/R138H/R169H/T345S)
assayRemarks: biochemical
Format: binding
conditionDetails: peptide concentration giving 50% of optimal binding; 10^−4 to 10^−9 M, 21° C. for 18 h; read-out: Affinity (ED50)
Residues, ends and D or L forms follow the SMILES beside them.
log10(EC50) for assorted molecules
Answers are given as log10 of EC50 in nM.

Solved cases below.
>>> readoutvalue("CC(C)C[C@H](NC(=O)[C@@H](N)CC(C)C)C(=O)N[C@@H](C)C(=O)N[C@@H](CO)C(=O)N[C@@H](Cc1ccccc1)C(=O)N[C@H](C(=O)NCC(=O)N[C@@H](CCCNC(=N)N)C(=O)N[C@@H](CS)C(=O)O)[C@@H](C)O [Peptide 21] (H-LLASFTGRC-OH; N-terminus and C-terminus assumed)")
2.78
>>> readoutvalue("CC(C)[C@H](NC(=O)CNC(=O)[C@@H](NC(=O)[C@@H](NC(=O)[C@@H](NC(=O)[C@@H](NC(=O)[C@H](CO)NC(=O)[C@H](C)NC(=O)[C@@H](N)CO)C(C)C)C(C)C)C(C)C)C(C)C)C(=O)O [Peptide 347] (H-SASVVVVGV-OH; N-terminus and C-terminus assumed)")
2.30
>>> readoutvalue("CC(C)C[C@H](NC(=O)[C@H](CC(C)C)NC(=O)[C@H](CC(C)C)NC(=O)[C@@H](N)CC(C)C)C(=O)N[C@@H](C)C(=O)N[C@@H](CO)C(=O)N[C@@H](Cc1ccccc1)C(=O)N[C@H](C(=O)NCC(=O)O)[C@@H](C)O [Peptide 19] (H-LLLLASFTG-OH; N-terminus and C-terminus assumed)")
1.78
>>> readoutvalue("CC(C)[C@H](NC(=O)[C@@H](NC(=O)[C@@H](NC(=O)[C@@H](NC(=O)[C@@H](NC(=O)[C@H](CC(=O)O)NC(=O)[C@H](CO)NC(=O)[C@@H](NC(=O)CN)[C@@H](C)O)C(C)C)C(C)C)[C@@H](C)O)C(C)C)C(=O)O [Peptide 35] (H-GTSDVVTVV-OH; N-terminus and C-terminus assumed)")
2.48
>>> readoutvalue("CC(C)C[C@H](NC(=O)[C@H](C)N)C(=O)N[C@@H](CC(C)C)C(=O)N[C@@H](Cc1ccccc1)C(=O)N[C@@H](CS)C(=O)N[C@@H](CC(C)C)C(=O)N[C@@H](CC(C)C)C(=O)N[C@H](C(=O)N[C@H](C(=O)O)C(C)C)C(C)C [Peptide 358] (H-ALLFCLLVV-OH; N-terminus and C-terminus assumed)")
2.30

Next, consider the following molecule.
For the molecule CC[C@H](C)[C@H](NC(=O)[C@@H](N)C(C)C)C(=O)N[C@@H](C)C(=O)N[C@@H](C)C(=O)N[C@@H](CC(C)C)C(=O)N[C@@H](CC(C)C)C(=O)N[C@@H](Cc1ccccc1)C(=O)N[C@@H](CS)C(=O)N[C@@H](CC(C)C)C(=O)O [Peptide 355] (H-VIAALLFCL-OH; N-terminus and C-terminus assumed) , report log10(EC50).
1.48
